Would you mind telling me the reported MAD of each entry?
- Test system: immature rabbits
- protocol_description: McPhail (Clauberg) assay of progestational activity
- Format: in vivo, rabbit
- test_conditions: minimum active dose; estradiol-primed immature rabbits, uterine glandular changes
Give bare numbers, in mg/kg.

GET /values?readout=MAD&system=immature rabbits&item= CC1=CC(C)(C)Nc2ccc3c(c21)C(C1CCC(C)=C1C)Oc1c(F)cc(F)cc1-3 (racemic)
0.25

Provide reported MAD for each item, in the same order as listed.
1. CC1=C[C@H]([C@H]2Oc3c(F)cc(F)cc3-c3ccc4c(c32)C(C)=CC(C)(C)N4)CCC1 (racemic)
2. CC1=CC(C2Oc3c(F)cc(F)cc3-c3ccc4c(c32)C(C)=CC(C)(C)N4)CCC1 (single isomer, unassigned; (-))

1. 0.25
2. 0.10

GET /values?readout=MAD&system=immature rabbits&item= CC1=CC(C2Oc3ccc(F)cc3-c3ccc4c(c32)C(C)=CC(C)(C)N4)CCC1 (racemic)
0.25

---

- target: hPR (Homo sapiens, UniProt P06401)
- Sequence (P06401 1-933): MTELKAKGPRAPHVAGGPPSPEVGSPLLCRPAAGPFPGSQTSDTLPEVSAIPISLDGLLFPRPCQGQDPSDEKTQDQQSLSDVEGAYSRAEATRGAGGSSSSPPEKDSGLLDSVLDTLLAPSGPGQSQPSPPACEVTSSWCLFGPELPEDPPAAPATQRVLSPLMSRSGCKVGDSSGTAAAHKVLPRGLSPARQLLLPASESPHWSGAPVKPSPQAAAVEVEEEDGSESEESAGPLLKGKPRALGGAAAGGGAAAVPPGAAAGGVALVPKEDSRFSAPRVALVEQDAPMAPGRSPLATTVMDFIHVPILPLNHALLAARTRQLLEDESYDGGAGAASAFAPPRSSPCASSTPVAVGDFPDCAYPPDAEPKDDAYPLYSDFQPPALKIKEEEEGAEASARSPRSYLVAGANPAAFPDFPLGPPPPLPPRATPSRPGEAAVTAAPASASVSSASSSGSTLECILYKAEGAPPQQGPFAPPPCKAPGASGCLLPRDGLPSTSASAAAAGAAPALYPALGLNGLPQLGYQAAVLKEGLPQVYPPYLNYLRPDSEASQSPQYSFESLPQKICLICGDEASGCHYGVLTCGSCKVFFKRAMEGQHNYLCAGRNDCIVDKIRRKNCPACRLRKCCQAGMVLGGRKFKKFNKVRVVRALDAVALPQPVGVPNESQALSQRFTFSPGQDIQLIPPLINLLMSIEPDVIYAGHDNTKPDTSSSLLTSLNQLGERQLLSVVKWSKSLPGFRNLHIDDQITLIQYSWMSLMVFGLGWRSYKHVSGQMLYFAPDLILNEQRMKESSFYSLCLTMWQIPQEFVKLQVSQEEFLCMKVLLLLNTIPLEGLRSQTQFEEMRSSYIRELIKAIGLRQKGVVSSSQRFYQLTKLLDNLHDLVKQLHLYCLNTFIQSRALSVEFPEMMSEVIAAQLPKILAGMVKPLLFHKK
- protocol_description: Cotransfection assay, PR agonist activity in CV-1 cells
- Format: cell-based
- test_conditions: CV-1 cells; agonist potency EC50; read-out: PR Agonist CV-1 Cells Potency
Recorded EC50 determines the group label, using I = under 4 nM, II = from 4 nM up to 10 nM, III = 10 nM and over

# bin label for CC1=C[C@@H]([C@H]2Oc3ccc(F)cc3-c3ccc4c(c32)C=CC(C)(C)N4)CCC1 (racemic)
III

# bin label for COc1cc2c(cc1F)-c1ccc3c(c1C(C1C=C(C)CCC1)O2)C(C)=CC(C)(C)N3 (racemic) [Compound 65]
III

# bin label for CC1=CC(C)(C)Nc2ccc3c(c21)C(C1CCC(C)=C1C)Oc1c(F)cc(F)cc1-3 (racemic)
I

# bin label for CC1=CC(C2Oc3ccc(F)cc3-c3ccc4c(c32)C(C)=CC(C)(C)N4)CC1 (racemic) [Compound 44]
II

# bin label for CC1=CC(C2Oc3ccc(F)cc3-c3ccc4c(c32)C(C)=CC(C)(C)N4)CCC1 (single isomer, unassigned; (+)) [Compound 27]
III

New cases:
# bin label for CC1=CC(C2Oc3ccc(F)cc3-c3ccc4c(c32)C(C)=CC(C)(C)N4)CC1 (racemic) [Compound 45]
II

---

Would you mind telling me the reported PR Antagonist CV-1 Cells Efficacy (%) of each entry?
- target: hPR (Homo sapiens, UniProt P06401)
- protocol_description: Cotransfection assay, PR antagonist activity in CV-1 cells
- Assay type: cell-based
- test_conditions: percent maximal response relative to reference antagonist

Solved entries:
Endpoint output: PR Antagonist CV-1 Cells Efficacy (%) of CN(C)c1ccc([C@H]2C[C@]3(C)[C@@H](CC[C@]3(O)CCCO)[C@@H]3CCC4=CC(=O)CCC4=C32)cc1 [ZK299, reference compound] . Value?
99%

Endpoint output: PR Antagonist CV-1 Cells Efficacy (%) of COc1cc2c(cc1F)-c1ccc3c(c1C(C1C=C(C)CCC1)O2)C(C)=CC(C)(C)N3 (racemic) [Compound 65] . Value?
59%

Provide reported PR Antagonist CV-1 Cells Efficacy (%) for each item, in the same order as listed.
1. COc1cc2c(cc1F)-c1ccc3c(c1C(C1C=C(C)CCC1)O2)C(C)=CC(C)(C)N3 (racemic) [Compound 64]
2. CC1=CC(C2Oc3c(F)cc(F)cc3-c3ccc4c(c32)C(C)=CC(C)(C)N4)CCC1 (single isomer, unassigned; (+)) [Compound 37]

80%
50%

---

Would you mind telling me the reported PR Agonist CV-1 Cells Efficacy (%) of each entry?
- target: hPR (Homo sapiens, UniProt P06401)
- protocol_description: Cotransfection assay, PR agonist activity in CV-1 cells
- Type: cell-based
- test_conditions: CV-1 cells, MTV-LUC reporter; percent maximal response relative to progesterone
One number for each entry, in %.

Solved entries:
Endpoint output: PR Agonist CV-1 Cells Efficacy (%) of CC1=CC(C2Oc3c(F)cc(F)cc3-c3ccc4c(c32)C(C)=CC(C)(C)N4)CCC1 (single isomer, unassigned; (-)) [Compound 38] . Value?
166

Endpoint output: PR Agonist CV-1 Cells Efficacy (%) of CC1=C[C@H]([C@H]2Oc3c(F)cc(F)cc3-c3ccc4c(c32)C(C)=CC(C)(C)N4)CCC1 (racemic) . Value?
164

Endpoint output: PR Agonist CV-1 Cells Efficacy (%) of CC1=CC(C2Oc3ccc(F)cc3-c3ccc4c(c32)C(C)=CC(C)(C)N4)CCC1 (single isomer, unassigned; (+)) [Compound 27] . Value?
68

Endpoint output: PR Agonist CV-1 Cells Efficacy (%) of CC1=CC(C2Oc3ccc(F)cc3-c3ccc4c(c32)C(C)=CC(C)(C)N4)CC1 (racemic) [Compound 45] . Value?
94

Endpoint output: PR Agonist CV-1 Cells Efficacy (%) of CC1=C[C@@H]([C@H]2Oc3c(F)cc(F)cc3-c3ccc4c(c32)C(C)=CC(C)(C)N4)CCC1 (racemic) . Value?
100

New cases:
Endpoint output: PR Agonist CV-1 Cells Efficacy (%) of CC1=CC(C2Oc3ccc(F)cc3-c3ccc4c(c32)C(C)=CC(C)(C)N4)CCC1 (racemic) [Compound 24] . Value?
168

---

- target: hPR-A (Homo sapiens, UniProt P06401)
- protocol_description: Receptor competitive binding assay
- test_conditions: hPR-A; read-out: PR Binding Ki
Would you mind telling me the reported Ki of each entry?
Answers are plain numbers, in nM.

GET /values?readout=Ki&system=hPR-A (Homo sapiens, UniProt P06401)&item= CC1=CC(C2Oc3ccc(F)cc3-c3ccc4c(c32)C(C)=CC(C)(C)N4)CCC1 (single isomer, unassigned; (-)) [Compound 28]
2

GET /values?readout=Ki&system=hPR-A (Homo sapiens, UniProt P06401)&item= CC1=CC(C2Oc3ccc(F)cc3-c3ccc4c(c32)C(C)=CC(C)(C)N4)CC1 (racemic) [Compound 44]
7.7

GET /values?readout=Ki&system=hPR-A (Homo sapiens, UniProt P06401)&item= CC1=CC(C)(C)Nc2ccc3c(c21)C(C1CCC(C)=C1C)Oc1c(F)cc(F)cc1-3 (racemic)
3.9

GET /values?readout=Ki&system=hPR-A (Homo sapiens, UniProt P06401)&item= CC1=CC(C2Oc3ccc(F)cc3-c3ccc4c(c32)C(C)=CC(C)(C)N4)CCC1 (single isomer, unassigned; (+)) [Compound 27]
241

GET /values?readout=Ki&system=hPR-A (Homo sapiens, UniProt P06401)&item= CC1=CC(C2Oc3ccc(F)cc3-c3ccc4c(c32)C(C)=CC(C)(C)N4)CC1 (racemic) [Compound 45]
17

Proceed to the following item.
GET /values?readout=Ki&system=hPR-A (Homo sapiens, UniProt P06401)&item= CC1=C[C@H]([C@H]2Oc3ccc(F)cc3-c3ccc4c(c32)C=CC(C)(C)N4)CCC1 (racemic)
11

---

Would you mind telling me the reported EC50 of each entry?
- target: UniProt P06401
- Sequence (P06401 1-933): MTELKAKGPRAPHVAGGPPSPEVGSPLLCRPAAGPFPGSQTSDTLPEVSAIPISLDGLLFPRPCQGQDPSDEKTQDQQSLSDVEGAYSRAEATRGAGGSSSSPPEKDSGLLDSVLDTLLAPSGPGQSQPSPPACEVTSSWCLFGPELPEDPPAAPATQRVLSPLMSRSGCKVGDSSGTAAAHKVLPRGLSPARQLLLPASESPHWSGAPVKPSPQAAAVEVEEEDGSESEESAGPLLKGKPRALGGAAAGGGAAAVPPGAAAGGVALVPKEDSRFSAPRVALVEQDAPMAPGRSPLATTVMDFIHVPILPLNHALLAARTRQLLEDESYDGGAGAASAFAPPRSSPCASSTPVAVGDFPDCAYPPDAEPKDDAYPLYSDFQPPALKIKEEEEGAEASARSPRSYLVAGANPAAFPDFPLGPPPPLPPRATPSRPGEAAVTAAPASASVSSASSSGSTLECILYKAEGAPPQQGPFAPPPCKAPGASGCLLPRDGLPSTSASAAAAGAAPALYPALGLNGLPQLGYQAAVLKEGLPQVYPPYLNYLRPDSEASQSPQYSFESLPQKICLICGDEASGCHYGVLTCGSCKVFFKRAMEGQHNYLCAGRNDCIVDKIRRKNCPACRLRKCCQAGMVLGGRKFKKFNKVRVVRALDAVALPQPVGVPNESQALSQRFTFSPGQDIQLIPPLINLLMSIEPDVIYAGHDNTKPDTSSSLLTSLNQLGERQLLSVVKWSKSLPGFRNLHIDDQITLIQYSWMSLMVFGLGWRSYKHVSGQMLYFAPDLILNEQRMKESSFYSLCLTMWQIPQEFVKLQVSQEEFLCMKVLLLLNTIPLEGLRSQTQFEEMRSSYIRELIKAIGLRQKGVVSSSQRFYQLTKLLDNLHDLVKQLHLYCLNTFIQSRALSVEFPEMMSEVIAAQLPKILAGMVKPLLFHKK
- protocol_description: Cotransfection assay, PR agonist activity in CV-1 cells
- Assay type: cell-based
- test_conditions: CV-1 cells; agonist potency EC50; read-out: PR Agonist CV-1 Cells Potency
Answers are plain numbers, in nM.

Endpoint output: EC50 of CC1=C[C@H]([C@H]2Oc3ccc(F)cc3-c3ccc4c(c32)C=CC(C)(C)N4)CCC1 (racemic) . Value?
10

Endpoint output: EC50 of CC1=CC(C2Oc3ccc(F)cc3-c3ccc4c(c32)C(C)=CC(C)(C)N4)CCC1 (racemic) [Compound 24] . Value?
3.6

Endpoint output: EC50 of CC1=CC(C2Oc3ccc(F)cc3-c3ccc4c(c32)C(C)=CC(C)(C)N4)CCC1 (racemic) [Compound 25] . Value?
9.7

New cases:
Endpoint output: EC50 of CC1=CC(C2Oc3ccc(F)cc3-c3ccc4c(c32)C(C)=CC(C)(C)N4)CCC1 (single isomer, unassigned; (-)) [Compound 28] . Value?
0.9
